# Tested on: K562 (human chronic myelogenous leukemia) cells
# MEASUREMENT_PROTOCOL: Cell Titer Glo 2.0 cell viability assay
# Type: cell-based
# CONDITION_PARAMETERS: Homo sapiens, K562, 72 h, K562 cells, 72 hours, Cell Titer Glo 2.0; read-out: K562 GI50
Parameter GI50: see the listing below.

Ask | Consider the compound Cc1cn2cc(-c3nc(C)c4c(=O)n([C@H]5CCN[C@@H](C)C5)ccc4n3)cc(F)c2n1 and give its measured GI50.
Reply | 0.1 to 1 µM

----------
# Test system: HTT mRNA
# MEASUREMENT_PROTOCOL: RT-qPCR splicing assay, HTT canonical junction (CJ) and alternative junction (AJ) mRNA
# Assay type: cell-based, human
# CONDITION_PARAMETERS: Homo sapiens, increase in HTT alternative junction (AJ) mRNA, RT-qPCR; read-out: HTT AJ AC50
PARAMETER_MEASURED: AC50

Below, 2 compounds whose answers are already recorded.
1. Cc1cn2cc(-c3nc4ccc(N5CCNCC5)cc4c(=O)[nH]3)cc(F)c2n1
> 10000 nM
2. Cn1cc2cc(-c3ncc4c(=O)n([C@@H]5CCNC5)ccc4n3)c(O)c(F)c2n1
100 to 1000 nM

Ask | # query: AC50 | item Cc1cn2nc(-c3cc(N(C)C)c4c(=O)n(C5CCNC6(CC6)C5)cnc4c3)cc(C)c2n1 (stereo not shown) | system: HTT mRNA
Reply | < 100 nM

Ask | Same again, this time with Cc1cn2cc(-c3ccc4c(=O)n(C5CCNC5)cc(C)c4c3)cc(C#N)c2n1 (stereo not shown)
Reply | > 10000 nM

Ask | Another compound to check: Cc1cn2nc(-c3ccc4c(=O)n([C@H]5CCN[C@H](C)C5)ncc4c3)cc(C)c2n1
Reply | < 100 nM

Ask | Same read-out for Cc1cc(-c2cc(F)c3c(=O)n(C4CCN(C)CC4)cnc3c2)cc2cn(C)nc12 ?
Reply | 100 to 1000 nM

Ask | Would you mind doing Cc1cn2cc(-c3cc(F)c4c(=O)n(C5CCNC6(CC6)C5)ccc4c3)cc(C)c2n1 (stereo not shown) as well?
Reply | 100 to 1000 nM

Ask | How about this compound: Cn1cc2ccc(-n3cnc4ccc(NC5CCNCC5)cc4c3=O)cc2n1
Reply | > 10000 nM

Ask | Please answer likewise for Cc1cn2cc(-c3ccc4c(=O)n(C5CCN(C)CC5)cnc4c3)nc2c(C)n1
Reply | 1000 to 10000 nM

Ask | What about COc1cc(-c2ccc3c(=O)n([C@H]4CCN[C@@H](C)C4)ccc3n2)nn2cc(C)nc12 ?
Reply | < 100 nM

Ask | Same thing, different compound: Cc1cn2cc(-c3cc(C)c4c(=O)n(C5CCNCC5)ccc4n3)cc(F)c2n1
Reply | 100 to 1000 nM

Ask | Record: Cc1cc(-c2cc3ccn(C4CCN(CCO)CC4)c(=O)c3cn2)cc2cn(C)nc12
Reply | > 10000 nM

Ask | And then Cc1cn2cc(-c3cc(F)c4c(=O)n(C5CCNCC5)cnc4c3)cc(F)c2n1 , what is it?
Reply | < 100 nM

Ask | Repeat for the following compound: Cc1cn2cc(-n3cnc4ccc(N5CCNCC5)cc4c3=O)cc(F)c2n1
Reply | > 10000 nM

Ask | Next compound up: Cc1cn2nc(-c3ccc4c(=O)n(C5CCN(C)CC5)cnc4c3F)cc(C)c2n1
Reply | 100 to 1000 nM

Ask | // next record CN1CCC(n2cnc3cc(-c4cc(F)c5nn(C)cc5c4)ccc3c2=O)CC1
Reply | 1000 to 10000 nM

Ask | Okay, and Cc1cc(-c2cc(F)c3c(=O)n(C4CCNC5(CC5)C4)cnc3c2)nc2cn(C)nc12 (stereo not shown) ?
Reply | < 100 nM

Ask | What do you have for Cc1c(O)c(-c2ccc3c(=O)n([C@H]4CC[C@@H](N(C)C)CC4)ccc3n2)cc2cn(C)nc12 ?
Reply | 100 to 1000 nM

Ask | Subsequent entry: Cn1cc2cc(-n3cnc4ccc(C5=CCNCC5)cc4c3=O)ccc2n1
Reply | > 10000 nM

Ask | Cool, now Cc1cn2cc(-c3cc(F)c4c(=O)n([C@@H]5C[C@@H](C)N[C@@H](C)C5)ccc4c3)cc(F)c2n1
Reply | 100 to 1000 nM

Ask | And what about the compound Cc1cc(-c2ccc3ncn(C4CCNCC4)c(=O)c3c2)cc2cn(C)nc12 ?
Reply | > 10000 nM

Ask | Follow-up item: Cc1cn2nc(-c3ccc4c(=O)n(C5CCNCC5)ccc4c3)cc(-n3ccccc3=O)c2n1
Reply | > 10000 nM

----------
# System: MYB mRNA
# MEASUREMENT_PROTOCOL: RT-qPCR splicing assay, MYB canonical junction (CJ) and alternative junction (AJ) mRNA
# Type: cell-based, human
# CONDITION_PARAMETERS: Homo sapiens; increase in MYB alternative junction (AJ) mRNA, RT-qPCR; read-out: MYB AJ AC50
Recorded AC50 values for a group of compounds are listed next.

Recorded results for 5 compounds are shown here.
1) Cc1cn2nc(-c3ccc4c(=O)n(C5CCN(C)CC5)cnc4c3)nc2c(C)n1
1000 to 10000 nM
2) Cc1cn2cc(-c3ccc4c(=O)n(C5CCNCC5)ncc4c3)cc(F)c2n1
100 to 1000 nM
3) Cc1cc(-c2cc(F)c3c(=O)n(C4CCNC5(CC5)C4)ncc3c2)cc2cn(C)nc12 (centres unmarked)
100 to 1000 nM
4) Cc1cn2nc(-c3ccc4c(=O)n(C5CCN(C)CC5)ccc4c3)cc(C)c2n1
< 100 nM
5) Cc1cn2nc(-c3ccc4c(=O)n(C5CCN(C)CC5)cnc4c3F)cc(C)c2n1
100 to 1000 nM

Ask | Give MYB mRNA AC50 for CN1CCN(c2ccc3ncn(-c4ccc5nn(C)cc5c4)c(=O)c3c2)CC1
Reply | > 10000 nM

Ask | Item: Cc1cn2nc(-c3cc(F)c4c(=O)n(C5CCNCC5)ncc4c3)cc(Oc3ccccc3)c2n1
Reply | < 100 nM

Ask | Same thing, different compound: Cc1cn2nc(-c3cc(N)c4c(=O)n([C@H]5CCNC5)ccc4c3)cc(C)c2n1
Reply | 1000 to 10000 nM

----------
# System: MYB mRNA
# MEASUREMENT_PROTOCOL: RT-qPCR splicing assay, MYB canonical junction (CJ) and alternative junction (AJ) mRNA
# Type: cell-based, human
# CONDITION_PARAMETERS: Homo sapiens; increase in MYB alternative junction (AJ) mRNA, RT-qPCR; read-out: MYB AJ AC50
PARAMETER_MEASURED: AC50

Examples with answers:
1) Cc1cn2cc(-c3cc(F)c4c(=O)n(C5CCNCC5)ccc4c3)cc(F)c2n1 [Compound 370]
< 0.1 µM
2) Cc1cn2cc(-c3ccc4c(=O)n(C5CCNCC5)ccc4n3)c(O)cc2n1 [Compound 1240]
1 to 10 µM
3) Cc1nc2c(F)cc(-c3cc(F)c4c(=O)n(C5CCNC6(CC6)C5)ccc4c3)cc2n1C (stereo not shown) [Compound 430]
> 10 µM

Next compound, please.
Ask | I am curious: what AC50 value has been reported for Cc1cn2nc(-c3ccc4c(=O)n(C5CCN(CCF)C6(CC6)C5)ncc4n3)cc(C)c2n1 (stereo not shown) [Compound 1542] ?
Reply | 1 to 10 µM

----------
# Test system: HTT mRNA
# MEASUREMENT_PROTOCOL: RT-qPCR splicing assay, HTT canonical junction (CJ) and alternative junction (AJ) mRNA
# Assay type: cell-based, human
# CONDITION_PARAMETERS: Homo sapiens, increase in HTT alternative junction (AJ) mRNA, RT-qPCR; read-out: HTT AJ AC50
AC50 values by entry

Here's what some known entries look like.
1. CN1CCN(c2ccc3c(=O)n(-c4ccc5cn(C)nc5c4)cnc3c2)CC1
> 10000 nM
2. Cc1cn2nc(-c3cc(F)c4c(=O)n(C5CCNC6(CC6)C5)ccc4c3)cc(C)c2n1 (stereo not shown)
< 100 nM
3. Cc1cn2nc(-c3cc(C)c4c(=O)n(C5CCNC6(CC6)C5)ncc4n3)cc(C)c2n1 (stereo not shown)
100 to 1000 nM

Here is another compound to look at.
Ask | Entry Cc1cn2cc(-c3ncc4c(=O)n([C@H]5CCNC6(CC6)C5)ccc4n3)cc(F)c2n1 : reported AC50 = ?
Reply | 100 to 1000 nM

----------
Entries annotated with measured pIC50
# System: MYB
# MEASUREMENT_PROTOCOL: HiBiT protein abundance assay, MYB HiBiT K562 cell line
# Assay type: cell-based, human
# CONDITION_PARAMETERS: HiBiT K562 cell line, 24 hours, top dose 10 μM; read-out: Effect on protein abundance, MYB (IC50 category)
pIC50: −log10 of the molar value.

1. Cc1cn2cc(-c3ccc4c(=O)n(C5CCNC5)ccc4n3)c(O)c(C)c2n1 (stereo not shown) [Compound 1302]
< 5.00
2. COc1cccc(Oc2cc(-c3ccc4c(=O)n(C5CCNCC5)ccc4c3)nn3cc(C)nc23)c1 [Compound 547]
> 7.00
3. Cc1cn2nc(-c3cc(F)c4c(=O)n([C@H]5CCNC6(CC6)C5)ncc4c3)cc(C)c2n1 [Compound 447]
> 7.00

Ask | Form: Entry = Cc1cn2cc(-c3cc(F)c4c(=O)n([C@@H]5CCNC5)ccc4c3)cc(F)c2n1 (single isomer, unassigned) [Compound 395] | System = MYB | pIC50 = ____
Reply | 6.00 to 7.00
